tgt: 5-HT2A (Homo sapiens, UniProt P28223)
Sequence (P28223 whole entry): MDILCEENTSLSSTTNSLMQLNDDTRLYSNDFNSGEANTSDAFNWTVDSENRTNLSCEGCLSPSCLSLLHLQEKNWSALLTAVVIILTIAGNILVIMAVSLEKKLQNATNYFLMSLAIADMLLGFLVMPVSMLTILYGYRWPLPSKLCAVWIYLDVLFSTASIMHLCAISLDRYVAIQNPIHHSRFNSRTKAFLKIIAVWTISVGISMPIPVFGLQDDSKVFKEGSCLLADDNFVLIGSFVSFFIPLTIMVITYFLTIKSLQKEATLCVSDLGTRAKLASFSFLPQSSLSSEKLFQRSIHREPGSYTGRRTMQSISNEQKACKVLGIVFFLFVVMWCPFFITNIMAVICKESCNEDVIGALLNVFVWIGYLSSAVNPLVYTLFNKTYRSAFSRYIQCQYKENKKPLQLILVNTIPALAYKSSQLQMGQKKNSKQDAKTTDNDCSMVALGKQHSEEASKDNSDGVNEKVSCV
protocol notes: Serotonin 5-HT2A in vitro radioligand binding competition assay ([3H]-DOI)
Set-up: purchased Epics Therapeutics S. A. (Belgium), contract assay FAST-0505B; host or cells: membrane extracts
condition description: [3H]-DOI competition, membrane extracts; read-out: 5HT2A R[…] ACTIVITY
pIC50: −log10 of the molar value.
observed property: pIC50

1) FC(F)(F)c1cccc2[nH]c3c(c12)CC1CCCN1CC3 (stereo not shown) [Compound 28]: 6.00 to 7.00
2) Cn1c2c(c3ccccc31)CCN1CCCC1C2 (stereo not shown) [Compound 3]: 6.00 to 7.00
3) COc1ccc2c3c([nH]c2c1)CCN1CCC[C@H]1C3 [Compound 25]: < 5.00
4) c1ccc2c3c([nH]c2c1)CCN1CCCC1C3 (stereo not shown) [Compound 7]: 6.00 to 7.00
5) FC(F)(F)c1cccc2[nH]c3c(c12)CCN1CCCC1C3 (stereo not shown) [Compound 21]: 5.00 to 6.00
6) COc1ccc2c3c([nH]c2c1)C[C@H]1CCCN1CC3 [Compound 18]: < 5.00
7) FC(F)(F)Oc1ccc2c3c([nH]c2c1)CC1CCCN1CC3 (stereo not shown) [Compound 13]: 5.00 to 6.00
8) COc1ccc2c3c([nH]c2c1)CC1CCCN1CC3 (stereo not shown) [Compound 2]: < 5.00
9) c1ccc2c3c([nH]c2c1)CCN1CCC[C@H]1C3 [Compound 23]: 6.00 to 7.00
10) c1ccc2c3c([nH]c2c1)C[C@@H]1CCCN1CC3 [Compound 19]: 6.00 to 7.00
